CC50 for assorted compounds
# Tested on: HT22 cells
# ASSAY_PROTOCOL: In vitro neurotoxicity without glutamate (MTS cell viability)
# Type: cell-based, mouse
# CONDITION_CONTEXT: HT22 cells without glutamate, 24 hrs, MTS; concentration producing 50% toxicity; read-out: Toxicity TC50
MEASURED_QUANTITY: CC50

>>> result_value("O=C1C=CC(=O)c2ccccc21 [Compound 1a, 1,4-naphthoquinone, reference compound]")
"19 µM"
>>> result_value("O=C1C=C(NCc2ccncc2)C(=O)c2ccccc21 [Compound 2m]")
"80 µM"
>>> result_value("O=C1C=C(O)C(=O)c2ccccc21 [Compound 1g]")
"> 100 µM"
>>> result_value("Cc1ccc(CNC2=CC(=O)c3ccccc3C2=O)cc1 [Compound 2r]")
"> 100 µM"
>>> result_value("CNC1=CC(=O)c2ccccc2C1=O [Compound 2a, 2-(methylamino)naphthalene-1,4-dione]")
"> 100 µM"
